# measurement_target: PAK7 (human) (UniProt Q9P286)
# Sequence (Q9P286 whole entry, looked up): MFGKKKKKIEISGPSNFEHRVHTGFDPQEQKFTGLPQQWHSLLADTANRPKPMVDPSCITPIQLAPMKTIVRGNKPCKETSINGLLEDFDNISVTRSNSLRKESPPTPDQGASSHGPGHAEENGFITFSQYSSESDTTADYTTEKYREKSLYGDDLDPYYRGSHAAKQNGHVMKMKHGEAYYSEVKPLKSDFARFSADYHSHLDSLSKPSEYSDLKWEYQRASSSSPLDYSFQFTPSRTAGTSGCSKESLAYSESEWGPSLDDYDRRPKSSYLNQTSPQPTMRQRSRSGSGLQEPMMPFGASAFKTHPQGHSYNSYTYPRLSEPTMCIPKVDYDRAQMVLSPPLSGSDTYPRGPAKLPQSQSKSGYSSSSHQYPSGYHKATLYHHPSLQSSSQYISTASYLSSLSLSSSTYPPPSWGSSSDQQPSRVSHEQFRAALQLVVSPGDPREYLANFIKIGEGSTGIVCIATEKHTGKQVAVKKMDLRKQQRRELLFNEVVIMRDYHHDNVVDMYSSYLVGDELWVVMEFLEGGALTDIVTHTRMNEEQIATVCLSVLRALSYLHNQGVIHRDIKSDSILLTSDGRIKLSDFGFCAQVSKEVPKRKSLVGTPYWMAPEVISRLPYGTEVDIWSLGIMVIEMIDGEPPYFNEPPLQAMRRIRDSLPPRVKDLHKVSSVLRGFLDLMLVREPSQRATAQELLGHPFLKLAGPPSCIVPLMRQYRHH
# assay_method_text: radiometric filter-binding kinase assay
# experimental_setup: compound 1.0 µM
// reported residual activity per item
Numbers only here, please. The scale is %.

Guide cases for residual activity, answers given:
C[C@H]1CCCC(=O)CCC/C=C/c2cc(O)cc(O)c2C(=O)O1	93
COc1cc2ncn(-c3cc(OCc4ccccc4S(C)(=O)=O)c(C#N)s3)c2cc1OC	80
Cn1c(=O)c2c(ncn2C)n(C)c1=O	114
O=C(O)c1cc(N=Nc2ccc(S(=O)(=O)Nc3ccccn3)cc2)ccc1O	104
Nc1cccc2c1CN(C1CCC(=O)NC1=O)C2=O (stereo not given)	86
NC(=O)c1ccc(-c2ccc(Oc3cncc4sc(-c5nn[nH]n5)cc34)cc2)cc1	81
CCNc1nc(Nc2cc(F)c(C(=O)N3CCOCC3)cc2OC)ncc1C(F)(F)F	95
O=C1Nc2nc(-c3c(O)cccc3OCC3CC3)cc(C3CCCNC3)c2CO1 (stereo not given)	82

Q: Report residual activity for `N#Cc1c(C2CCNCC2)cc(-c2c(O)cccc2OCC2CC2)nc1N` please.
Ans: 84

Q: And then `Cc1ccc(Sc2cnc(Nc3cccc(Br)n3)s2)cc1C(=O)N1CCN(C(=O)CN)CC1` , what is it?
Ans: 58

---

// values below are reported residual activity
# measurement_target: PHKG1 (human) (UniProt Q16816)
# Sequence (Q16816 whole entry, looked up): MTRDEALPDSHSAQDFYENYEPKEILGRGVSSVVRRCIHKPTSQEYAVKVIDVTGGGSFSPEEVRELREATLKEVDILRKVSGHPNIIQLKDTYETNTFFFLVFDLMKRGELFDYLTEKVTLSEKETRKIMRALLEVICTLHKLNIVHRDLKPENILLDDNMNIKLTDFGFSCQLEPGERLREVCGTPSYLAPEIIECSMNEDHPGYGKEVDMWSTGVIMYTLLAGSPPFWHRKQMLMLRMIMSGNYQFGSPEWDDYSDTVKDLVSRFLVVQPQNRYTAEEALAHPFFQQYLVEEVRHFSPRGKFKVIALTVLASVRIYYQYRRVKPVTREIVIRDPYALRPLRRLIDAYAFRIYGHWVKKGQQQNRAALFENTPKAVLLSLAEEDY
# assay_method_text: radiometric filter-binding kinase assay
# experimental_setup: compound 0.1 µM
# number only, unit % dropped from output

Recorded residual activity, per entry:
NC(=O)c1cc2c(-c3cccc(-c4ccccc4)c3)cnc(N)c2s1	104
O=C(Nc1nc2cc(C(F)(F)F)cc(NC3CC3)n2n1)c1cccnc1	115
O=C(N[C@@H](COc1ccc2[nH]c(=O)[nH]c2c1)c1ccccc1)c1cccn(Cc2ccc(F)c(F)c2)c1=O	100
CCc1cncnc1N1CCN(Cc2nc3cc(C(F)(F)F)ccc3[nH]2)CC1	100
CN1CCN(CCOc2cc(OC3CCOCC3)c3c(Nc4c(Cl)ccc5c4OCO5)ncnc3c2)CC1	106

Q: What is its residual activity for PHKG1 (human) (UniProt Q16816)? Entry: `C/C(=C1/C(=O)Nc2ccc(NC(N)=O)cc21)c1ccc[nH]1`
Ans: 18

Q: Input `NC(=O)Nc1ccc2c(c1)/C(=C/c1cc(-c3cccnc3)c[nH]1)C(=O)N2`
Ans: 13

Q: Next up: `COc1ccc(N(C(=O)Nc2c(C)cccc2C)c2cc(Nc3ccc(N4CCN(C)CC4)cc3)ncn2)c(OC)c1`
Ans: 104

Q: // next record `Cc1cc(NC(=O)c2cccc(NC(=O)/C=C/CN(C)C)c2)ccc1Nc1nccc(-c2cccnc2)n1`
Ans: 85

---

# measurement_target: UniProt:Q9H4A3
# Sequence (Q9H4A3 whole entry, looked up): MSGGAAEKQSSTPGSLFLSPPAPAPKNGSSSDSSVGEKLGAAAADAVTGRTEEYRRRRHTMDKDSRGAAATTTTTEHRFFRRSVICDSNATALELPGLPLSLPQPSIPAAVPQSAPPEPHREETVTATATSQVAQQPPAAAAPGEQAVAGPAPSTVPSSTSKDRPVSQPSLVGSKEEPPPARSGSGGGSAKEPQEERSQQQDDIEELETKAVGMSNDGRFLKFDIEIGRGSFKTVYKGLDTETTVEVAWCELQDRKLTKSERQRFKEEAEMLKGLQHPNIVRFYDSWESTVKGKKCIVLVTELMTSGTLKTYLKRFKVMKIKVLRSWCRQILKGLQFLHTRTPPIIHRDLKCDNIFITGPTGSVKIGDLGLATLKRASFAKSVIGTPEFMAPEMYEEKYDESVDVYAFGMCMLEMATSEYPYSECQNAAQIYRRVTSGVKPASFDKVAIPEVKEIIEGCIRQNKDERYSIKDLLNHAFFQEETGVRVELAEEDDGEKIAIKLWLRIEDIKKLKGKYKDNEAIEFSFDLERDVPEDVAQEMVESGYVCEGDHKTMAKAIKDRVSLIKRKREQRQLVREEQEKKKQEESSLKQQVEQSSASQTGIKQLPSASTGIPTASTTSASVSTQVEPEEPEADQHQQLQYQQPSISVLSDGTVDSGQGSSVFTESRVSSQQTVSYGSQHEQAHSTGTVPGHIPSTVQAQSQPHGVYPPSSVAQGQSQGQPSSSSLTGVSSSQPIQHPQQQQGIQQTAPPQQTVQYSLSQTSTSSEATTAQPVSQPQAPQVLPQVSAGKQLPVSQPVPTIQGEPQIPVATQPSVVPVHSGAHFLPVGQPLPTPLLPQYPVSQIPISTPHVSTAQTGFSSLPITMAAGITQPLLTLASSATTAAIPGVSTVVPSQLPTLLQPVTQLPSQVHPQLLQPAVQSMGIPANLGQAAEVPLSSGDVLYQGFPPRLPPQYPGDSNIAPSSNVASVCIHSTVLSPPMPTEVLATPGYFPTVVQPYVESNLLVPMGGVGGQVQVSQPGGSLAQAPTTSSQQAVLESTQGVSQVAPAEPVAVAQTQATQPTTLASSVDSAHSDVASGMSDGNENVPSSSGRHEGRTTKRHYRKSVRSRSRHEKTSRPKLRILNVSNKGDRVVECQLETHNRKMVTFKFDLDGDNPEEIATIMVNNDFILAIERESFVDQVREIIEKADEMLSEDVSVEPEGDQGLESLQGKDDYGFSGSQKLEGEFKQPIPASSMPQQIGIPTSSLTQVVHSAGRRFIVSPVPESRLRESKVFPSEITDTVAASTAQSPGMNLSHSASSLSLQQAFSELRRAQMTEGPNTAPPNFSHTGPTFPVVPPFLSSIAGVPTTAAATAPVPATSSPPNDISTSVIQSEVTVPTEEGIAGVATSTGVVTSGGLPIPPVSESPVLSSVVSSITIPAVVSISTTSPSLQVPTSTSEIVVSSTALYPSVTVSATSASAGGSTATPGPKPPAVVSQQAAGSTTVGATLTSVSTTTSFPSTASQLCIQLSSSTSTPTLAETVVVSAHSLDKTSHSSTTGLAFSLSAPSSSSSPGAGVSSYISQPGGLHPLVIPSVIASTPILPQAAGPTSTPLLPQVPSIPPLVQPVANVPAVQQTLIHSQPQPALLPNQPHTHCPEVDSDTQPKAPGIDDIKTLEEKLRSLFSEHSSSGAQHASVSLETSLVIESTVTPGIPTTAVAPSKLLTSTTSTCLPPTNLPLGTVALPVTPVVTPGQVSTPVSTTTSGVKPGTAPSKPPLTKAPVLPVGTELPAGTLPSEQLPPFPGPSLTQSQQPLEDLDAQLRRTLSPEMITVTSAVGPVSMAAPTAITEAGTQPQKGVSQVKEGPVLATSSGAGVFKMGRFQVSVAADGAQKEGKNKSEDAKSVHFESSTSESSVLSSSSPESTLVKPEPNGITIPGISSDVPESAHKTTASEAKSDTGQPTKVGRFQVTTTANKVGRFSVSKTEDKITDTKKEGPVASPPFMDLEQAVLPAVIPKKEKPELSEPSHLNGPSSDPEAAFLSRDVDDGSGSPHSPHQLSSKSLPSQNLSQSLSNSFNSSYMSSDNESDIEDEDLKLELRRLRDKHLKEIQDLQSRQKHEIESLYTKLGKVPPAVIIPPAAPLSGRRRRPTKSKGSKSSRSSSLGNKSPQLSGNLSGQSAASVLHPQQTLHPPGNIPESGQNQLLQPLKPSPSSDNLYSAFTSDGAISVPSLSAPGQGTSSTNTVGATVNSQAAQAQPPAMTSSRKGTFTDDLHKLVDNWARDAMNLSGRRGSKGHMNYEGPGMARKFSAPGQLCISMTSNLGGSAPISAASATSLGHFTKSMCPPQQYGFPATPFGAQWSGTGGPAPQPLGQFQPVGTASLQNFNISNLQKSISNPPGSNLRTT
# assay_method_text: radiometric filter-binding kinase assay
# experimental_setup: compound 0.1 µM
The following compounds are shown together with reported residual activity values.
Only the number, expressed in %, is required.

Recorded results for 3 compounds are shown here.
CCn1c(-c2nonc2N)nc2cncc(CNC3CCNCC3)c21	106
CN(C)C/C=C/C(=O)Nc1cccc(C(=O)Nc2ccc(Nc3nccc(-c4cccnc4)n3)cc2)c1	103
Cc1ccc(-c2ccc3c(ccc4sc5c(c43)NC[C@@H](C)NC5=O)n2)cn1	113

Q: Endpoint output: residual activity of CC1=C(CO)C(=O)O[C@@H]([C@@H](C)[C@H]2CC[C@H]3[C@@H]4C[C@H]5O[C@]56[C@@H](O)C=CC(=O)[C@]6(C)C4CC[C@]23C)C1 (stereo partly drawn) . Value?
Ans: 117

Q: // repeat for `CN1CCN(CCOc2cc(OC3CCOCC3)c3c(Nc4c(Cl)ccc5c4OCO5)ncnc3c2)CC1` and report
Ans: 99

Q: Now consider `COc1ccc(N(C(=O)Nc2c(C)cccc2C)c2cc(Nc3ccc(N4CCN(C)CC4)cc3)ncn2)c(OC)c1` and answer again.
Ans: 107

Q: Also COc1cc(O)c2c(c1)[C@H]1OC1C[C@H](O)[C@H](O)C(=O)/C=C\C[C@H](C)OC2=O (stereo partly drawn) , if possible.
Ans: 107

Q: Continue with CNC(=O)C1[C@H]2O[C@@](C)([C@@H]1N)n1c3ccccc3c3c4c(c5c6ccccc6n2c5c31)C(=O)NC4 (stereo partly drawn)
Ans: 91

---

# measurement_target: PKN2 (human)
# assay_method_text: radiometric filter-binding kinase assay
# experimental_setup: compound 1.0 µM
measure: residual activity (%)
Write the number in % without appending the unit.

O=C1NC(=S)N[C@@H]1Cc1c[nH]c2ccccc12	87

Q: For the compound `C[C@H]1CCCC(=O)CCC/C=C/c2cc(O)cc(O)c2C(=O)O1` , what residual activity is on record?
Ans: 70

Q: What do you get for `Cc1ccc(=O)n(-c2ccccc2)c1` ?
Ans: 121

Q: `COc1ccc(N(C(=O)Nc2c(C)cccc2C)c2cc(Nc3ccc(N4CCN(C)CC4)cc3)ncn2)c(OC)c1` ?
Ans: 90

Q: Same question, `NC(=O)c1c(NC(=O)C2CC2)sc2c1CCCC2` this time
Ans: 106

---

# measurement_target: EPHB4 (human) (UniProt P54760)
# Sequence (P54760 whole entry, looked up): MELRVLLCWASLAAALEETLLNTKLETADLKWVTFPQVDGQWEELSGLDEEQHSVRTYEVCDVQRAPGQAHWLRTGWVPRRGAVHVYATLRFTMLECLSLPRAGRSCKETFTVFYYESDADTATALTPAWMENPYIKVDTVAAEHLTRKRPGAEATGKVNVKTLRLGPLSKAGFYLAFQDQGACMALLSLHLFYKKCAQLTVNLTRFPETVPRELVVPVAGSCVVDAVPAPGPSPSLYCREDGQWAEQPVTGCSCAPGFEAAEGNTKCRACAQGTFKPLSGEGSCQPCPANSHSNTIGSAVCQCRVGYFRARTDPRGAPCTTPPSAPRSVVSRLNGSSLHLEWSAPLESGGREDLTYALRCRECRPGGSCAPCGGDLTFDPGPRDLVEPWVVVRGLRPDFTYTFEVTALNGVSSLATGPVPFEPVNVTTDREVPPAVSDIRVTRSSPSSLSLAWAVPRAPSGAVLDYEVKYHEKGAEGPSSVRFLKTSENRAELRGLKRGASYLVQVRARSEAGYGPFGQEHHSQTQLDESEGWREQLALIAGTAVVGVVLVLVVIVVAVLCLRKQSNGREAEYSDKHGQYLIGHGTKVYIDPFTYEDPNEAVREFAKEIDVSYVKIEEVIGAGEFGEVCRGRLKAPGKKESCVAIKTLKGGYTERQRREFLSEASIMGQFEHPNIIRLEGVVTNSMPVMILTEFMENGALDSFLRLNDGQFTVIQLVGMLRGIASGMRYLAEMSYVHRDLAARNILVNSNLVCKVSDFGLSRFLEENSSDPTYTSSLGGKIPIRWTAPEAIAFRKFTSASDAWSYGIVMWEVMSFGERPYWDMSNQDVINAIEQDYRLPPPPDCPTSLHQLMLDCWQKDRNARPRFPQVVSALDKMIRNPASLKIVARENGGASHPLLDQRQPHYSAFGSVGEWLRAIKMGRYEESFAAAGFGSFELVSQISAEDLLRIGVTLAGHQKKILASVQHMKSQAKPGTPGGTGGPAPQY
# assay_method_text: radiometric filter-binding kinase assay
# experimental_setup: compound 0.1 µM
measure: residual activity (%)
Entry rule: numbers only, all in %.

CN(C)C/C=C/C(=O)Nc1cccc(C(=O)Nc2ccc(Nc3nccc(-c4cccnc4)n3)cc2)c1	105
Cc1cc(NC(=O)c2cccc(NC(=O)/C=C/CN(C)C)c2)ccc1Nc1nccc(-c2cccnc2)n1	97
Cc1ccc(Sc2cnc(Nc3cccc(Br)n3)s2)cc1C(=O)N1CCN(C(=O)CN)CC1	15
CCCCCc1ccc(/C=C/[C@H](O)[C@@H](CO)NC)cc1	122

Q: Fill in: residual activity of `O=C(Nc1nc2cc(C(F)(F)F)cc(NC3CC3)n2n1)c1cccnc1` is ___
Ans: 104

Q: Same for `c1ccc2c(-c3cnn4cc(-c5ccc(N6CCNCC6)cc5)cnc34)ccnc2c1`
Ans: 96

Q: // query: `Cc1cccc(-c2nn(C(=S)Nc3ccccc3)cc2-c2ccnc3ccccc23)n1`
Ans: 93

Q: Then COc1cc(O)c2c(c1)[C@H]1OC1C[C@H](O)[C@H](O)C(=O)/C=C\C[C@H](C)OC2=O (some centres undefined) ?
Ans: 116

Q: Subsequent entry: `C=CC(=O)N1CCC[C@@H](n2nc(-c3ccc(Oc4ccccc4)cc3)c3c(N)ncnc32)C1`
Ans: 83

---

# measurement_target: MINK1 (human)
# assay_method_text: radiometric filter-binding kinase assay
# experimental_setup: compound 0.1 µM
measure: residual activity (%)
Write the answer as a number in %, unit excluded.

Below: 4 molecules and their reported residual activity.
CCCCCc1ccc(/C=C/[C@H](O)[C@@H](CO)NC)cc1	107
C=CC(=O)N1CCC[C@@H](n2nc(-c3ccc(Oc4ccccc4)cc3)c3c(N)ncnc32)C1	90
CNC(=O)C1[C@H]2O[C@@](C)([C@@H]1N)n1c3ccccc3c3c4c(c5c6ccccc6n2c5c31)C(=O)NC4 (stereo not given in full)	3
O=C(Nc1nc2cc(C(F)(F)F)cc(NC3CC3)n2n1)c1cccnc1	113

For the next question, use this molecule.
Q: Find the recorded residual activity belonging to `O=C(NCCCNc1nc(Nc2cccc(CN3CCOCC3)c2)ncc1C1CC1)C1CCC1` and report it.
Ans: 123

---

# measurement_target: PAK7 (human)
# assay_method_text: radiometric filter-binding kinase assay
# experimental_setup: compound 0.1 µM
measure: residual activity
Please format your answer as a value with the unit trailing.

Solved cases below.
C/C(=C1/C(=O)Nc2ccc(NC(N)=O)cc21)c1ccc[nH]1	78%
O=C(Nc1nc2cc(C(F)(F)F)cc(NC3CC3)n2n1)c1cccnc1	114%
CN1CCN(CCOc2cc(OC3CCOCC3)c3c(Nc4c(Cl)ccc5c4OCO5)ncnc3c2)CC1	98%
O=C(NCCCNc1nc(Nc2cccc(CN3CCOCC3)c2)ncc1C1CC1)C1CCC1	95%
C=CC(=O)N1CCC[C@@H](n2nc(-c3ccc(Oc4ccccc4)cc3)c3c(N)ncnc32)C1	93%
COc1cc(O)c2c(c1)[C@H]1OC1C[C@H](O)[C@H](O)C(=O)/C=C\C[C@H](C)OC2=O (stereo partly specified)	115%

Q: Given the entry `NC(=O)Nc1ccc2c(c1)/C(=C/c1cc(-c3cccnc3)c[nH]1)C(=O)N2` , report its measured residual activity.
Ans: 75%

Q: Moving on to the next compound: `COc1ccc(-n2ncc3cnc(Nc4cc(OC)c(OC)c(OCCCN5CCN(C)CC5)c4)nc32)cc1`
Ans: 53%

Q: Item: `O=C(O)c1ccc(-c2c[nH]c3ncc(-c4ccccc4)cc23)cc1C1CCCC1`
Ans: 110%

Q: Do the same for `c1ccc2c(-c3cnn4cc(-c5ccc(N6CCNCC6)cc5)cnc34)ccnc2c1` please
Ans: 95%

Q: Try this compound too: `CCCCCc1ccc(/C=C/[C@H](O)[C@@H](CO)NC)cc1`
Ans: 104%
